meta.source: ChEMBL document CHEMBL4257471

Assay: Inhibition of yeast alpha-glucosidase pre-incubated for 5 mins followed by p-nitrophenyl-alpha-D-glucopyranoside substrate addition and measured after 30 mins by spectrophotometric assay
Design: species or system Saccharomyces cerevisiae
pIC50: −log10 of the molar value.
MEASURED_ATTRIBUTE: pIC50

Example cases with answers are listed next.
CCCCOC1OCC(CNC(=N)N2C[C@@H](O)[C@H](O)[C@@H](O)C2)O1 (stereo partly drawn)    < 4.52
CCCCCCCCCN1C[C@H](O)[C@@H](O)[C@H](O)[C@H]1CO    < 4.52

Q: Give the reported pIC50 for this molecule. CCCCCCCCOC1OCC(CNC(=N)N2C[C@@H](O)[C@H](O)[C@@H](O)C2)O1 (stereo partly drawn)
Result: < 4.52
